target: SmoM2::GFP (Homo sapiens, UniProt Q99835, W535L); assay: Ciliary localization of SmoM2::GFP (3T3/SmoM2::GFP Overexpression/Ivs::tagRFPT); details: 3T3/SmoM2::GFP Overexpression/Ivs::tagRFPT; stimulus none; read-out: IC50, inhibition of ciliary localization of SmoM2::GFP
Sequence (Q99835 28-787 W535L): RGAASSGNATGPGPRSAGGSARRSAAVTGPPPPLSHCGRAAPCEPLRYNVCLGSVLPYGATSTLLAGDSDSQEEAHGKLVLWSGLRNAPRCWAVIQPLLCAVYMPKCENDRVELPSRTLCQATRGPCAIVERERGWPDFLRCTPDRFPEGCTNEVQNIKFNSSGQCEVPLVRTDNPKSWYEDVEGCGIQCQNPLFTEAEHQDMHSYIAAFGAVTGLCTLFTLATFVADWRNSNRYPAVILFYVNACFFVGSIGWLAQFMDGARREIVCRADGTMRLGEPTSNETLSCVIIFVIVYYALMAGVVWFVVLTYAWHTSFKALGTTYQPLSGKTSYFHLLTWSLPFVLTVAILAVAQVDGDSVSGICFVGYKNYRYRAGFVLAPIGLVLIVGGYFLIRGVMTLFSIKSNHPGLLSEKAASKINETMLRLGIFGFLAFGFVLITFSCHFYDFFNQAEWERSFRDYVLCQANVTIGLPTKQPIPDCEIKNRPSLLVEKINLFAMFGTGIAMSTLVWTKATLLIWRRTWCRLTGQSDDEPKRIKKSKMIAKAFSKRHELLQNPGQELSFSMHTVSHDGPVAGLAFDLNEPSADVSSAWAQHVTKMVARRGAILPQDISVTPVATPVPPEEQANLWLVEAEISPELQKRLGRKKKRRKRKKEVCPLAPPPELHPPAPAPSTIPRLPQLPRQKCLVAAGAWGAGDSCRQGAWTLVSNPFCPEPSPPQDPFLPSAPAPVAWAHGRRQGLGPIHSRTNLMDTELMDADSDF
pIC50: −log10 of the molar value.
REPORTED_PROPERTY: pIC50

I'd like to know its pIC50. The molecule in question is `CCN(CC)c1ccc(/C=N/NC(=O)c2ccc(O)cc2)cc1`
< 4.52
